- experiment notes: Biodistribution of 177Lu-labeled αMSH analogues in mice bearing B16F10 mouse melanoma
- Assay type: in vivo, C57BL/6J mice
- setup conditions: mouse, urine, iv, total radioactivity; 120 h p.i., C57BL/6J mice, B16F10 melanoma
Binary call on excreta dose per gram or mL at 120 h with cut-off 0.2 %ID/g: strictly below means y, and equality or higher means n.

Lab note: excreta dose per gram or mL at 120 h threshold 0.2 %ID/g. Does this compound come in strictly under it? CCCC[C@H](NC(=O)CN1CCC(NC(=O)CN2CCN(CC(=O)O)CCN(CC(=O)O)CCN(CC(=O)O)CC2)CC1)C(=O)N[C@H]1CC(=O)NCCCC[C@@H](C(N)=O)N(C)C(=O)[C@H](Cc2c[nH]c3ccccc23)N(C)C(=O)[C@H](CCCNC(=N)N)N(C)C(=O)[C@@H](Cc2ccccc2)NC(=O)[C@H](Cc2c[nH]cn2)N(C)C1=O [^177Lu-labeled CCZ01099, metal not drawn] y

Lab note: excreta dose per gram or mL at 120 h threshold 0.2 %ID/g. Does this compound come in strictly under it? CCCC[C@H](NC(=O)CN1CCC(NC(=O)[C@H](CCCCNC(=O)CN2CCN(CC(=O)O)CCN(CC(=O)O)CCN(CC(=O)O)CC2)NC(=O)[C@H](CCC(=O)O)NC(=O)CCCc2ccc(I)cc2)CC1)C(=O)N[C@H]1CC(=O)NCCCC[C@@H](C(N)=O)NC(=O)[C@H](Cc2c[nH]c3ccccc23)NC(=O)[C@H](CCCNC(=N)N)NC(=O)[C@@H](Cc2ccccc2)NC(=O)[C@H](Cc2c[nH]cn2)NC1=O [^177Lu-labeled CCZ01082, metal not drawn] n

Lab note: excreta dose per gram or mL at 120 h threshold 0.2 %ID/g. Does this compound come in strictly under it? CCCC[C@H](NC(=O)CN1CCC(NC(=O)CN2CCN(CC(=O)O)CCN(CC(=O)O)CCN(CC(=O)O)CC2)CC1)C(=O)N[C@H]1CC(=O)NCCCC[C@@H](C(N)=O)NC(=O)[C@H](Cc2c[nH]c3ccccc23)NC(=O)[C@H](CCCNC(=N)N)NC(=O)[C@@H](Cc2ccccc2)NC(=O)[C@H](Cc2c[nH]cn2)NC1=O [^177Lu-labeled CCZ01048, metal not drawn, reference compound] n

Lab note: excreta dose per gram or mL at 120 h threshold 0.2 %ID/g. Does this compound come in strictly under it? CCCC[C@H](NC(=O)CN1CCC(NC(=O)[C@H](CCCCNC(=O)CN2CCN(CC(=O)O)CCN(CC(=O)O)CCN(CC(=O)O)CC2)NC(=O)[C@H](CCC(=O)O)NC(=O)CCCc2ccc(I)cc2)CC1)C(=O)N[C@H]1CC(=O)NCCCC[C@@H](C(N)=O)N(C)C(=O)[C@H](Cc2c[nH]c3ccccc23)N(C)C(=O)[C@H](CCCNC(=N)N)N(C)C(=O)[C@@H](Cc2ccccc2)NC(=O)[C@H](Cc2c[nH]cn2)N(C)C1=O [^177Lu-labeled CCZ01088, metal not drawn] n

Lab note: excreta dose per gram or mL at 120 h threshold 0.2 %ID/g. Does this compound come in strictly under it? CCCC[C@H](NC(=O)CN1CCC(NC(=O)[C@H](CCCCNC(=O)CN2CCN(CC(=O)O)CCN(CC(=O)O)CCN(CC(=O)O)CC2)NC(=O)[C@H](CCC(=O)O)NC(=O)CCCc2ccc(I)cc2)CC1)C(=O)N[C@H]1CC(=O)NCCCC[C@@H](C(N)=O)N(C)C(=O)[C@H](Cc2c[nH]c3ccccc23)NC(=O)[C@H](CCCNC(=N)N)N(C)C(=O)[C@@H](Cc2ccccc2)NC(=O)[C@H](Cc2c[nH]cn2)NC1=O [^177Lu-labeled CCZ01118, metal not drawn] n

Lab note: excreta dose per gram or mL at 120 h threshold 0.2 %ID/g. Does this compound come in strictly under it? CCCC[C@H](NC(=O)CN1CCC(NC(=O)CN2CCN(CC(=O)O)CCN(CC(=O)O)CCN(CC(=O)O)CC2)CC1)C(=O)N[C@H]1CC(=O)NCCCC[C@@H](C(N)=O)N(C)C(=O)[C@H](Cc2c[nH]c3ccccc23)NC(=O)[C@H](CCCNC(=N)N)N(C)C(=O)[C@@H](Cc2ccccc2)NC(=O)[C@H](Cc2c[nH]cn2)NC1=O [^177Lu-labeled CCZ01106, metal not drawn] y
